# Protocol: Displacement of [3H]GABA from GABA receptor in rat cerebral cortex
# Assay type: tissue-based
pIC50: −log10 of the molar value.
Readout name: pIC50

Inquiry: pIC50 for `C/C(=N\OC(=O)Nc1ccccc1)c1cccc(-c2cccs2)c1` ?
Reply text: < 5.00

---

# Measured on: Cannabinoid receptor 2 (Mus musculus, UniProt P47936)
Readout name: IC50 (µM)
Give the number; µM is assumed, so skip it.

Inquiry: Give Cannabinoid receptor 2 (Mus musculus, UniProt P47936) IC50 for `C/C(=N\OC(=O)Nc1ccccc1)c1cccc(-c2cccs2)c1`
Reply text: 10

---

# Measured on: N-acyl-phosphatidylethanolamine-hydrolyzing phospholipase D (Mus musculus)
# Sequence (Q8BH82 whole entry): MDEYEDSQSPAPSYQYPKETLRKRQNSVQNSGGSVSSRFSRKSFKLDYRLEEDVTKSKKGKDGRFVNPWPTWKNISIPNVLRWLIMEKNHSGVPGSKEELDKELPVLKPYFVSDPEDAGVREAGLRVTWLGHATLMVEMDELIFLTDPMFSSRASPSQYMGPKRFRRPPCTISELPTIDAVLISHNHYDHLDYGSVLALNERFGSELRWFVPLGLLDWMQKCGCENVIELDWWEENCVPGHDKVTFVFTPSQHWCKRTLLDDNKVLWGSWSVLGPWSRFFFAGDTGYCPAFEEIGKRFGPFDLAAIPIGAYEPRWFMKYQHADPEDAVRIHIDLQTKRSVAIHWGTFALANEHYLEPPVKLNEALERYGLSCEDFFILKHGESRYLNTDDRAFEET
Readout name: IC50

Inquiry: Item `C/C(=N\OC(=O)Nc1ccccc1)c1cccc(-c2cccs2)c1` has what recorded IC50?
Reply text: > 10 µM

---

# Measured on: Neuropeptide Y receptor type 2 (Homo sapiens)
# Sequence (P49146 whole entry): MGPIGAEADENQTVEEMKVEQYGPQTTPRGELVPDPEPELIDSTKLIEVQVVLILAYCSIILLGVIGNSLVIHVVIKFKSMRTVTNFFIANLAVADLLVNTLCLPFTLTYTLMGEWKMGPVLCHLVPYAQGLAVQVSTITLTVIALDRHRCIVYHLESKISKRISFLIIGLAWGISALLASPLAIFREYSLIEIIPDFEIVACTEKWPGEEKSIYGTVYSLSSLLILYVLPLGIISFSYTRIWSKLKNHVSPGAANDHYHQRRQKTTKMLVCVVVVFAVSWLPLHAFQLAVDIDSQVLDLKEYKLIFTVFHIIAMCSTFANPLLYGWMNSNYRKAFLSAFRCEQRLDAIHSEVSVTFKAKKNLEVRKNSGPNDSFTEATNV
# Protocol: Displacement of [125I]peptide YY from human recombinant Y2 receptor expressed in KAN-TS cells
Readout name: IC50

Inquiry: For the molecule `C/C(=N\OC(=O)Nc1ccccc1)c1cccc(-c2cccs2)c1` , what IC50 is on record?
Reply text: > 10 µM

---

# Measured on: 5-hydroxytryptamine receptor 6 (Homo sapiens)
# Protocol: Displacement of [3H]LSD from human recombinant 5HT6 receptor expressed in CHO cells
Readout name: IC50

Inquiry: Please look up its IC50: `C/C(=N\OC(=O)Nc1ccccc1)c1cccc(-c2cccs2)c1`
Reply text: > 10 µM

---

# Measured on: Small conductance calcium-activated potassium channel protein 1 (Rattus norvegicus, UniProt P70606)
# Protocol: Displacement of [125I]apamin from SK+Ca channel in rat cerebral cortex
Readout name: IC50

Inquiry: Look at this compound and give its reported IC50. `C/C(=N\OC(=O)Nc1ccccc1)c1cccc(-c2cccs2)c1`
Reply text: > 10 µM

---

# Measured on: Galanin receptor type 2 (Homo sapiens)
# Sequence (O43603 whole entry): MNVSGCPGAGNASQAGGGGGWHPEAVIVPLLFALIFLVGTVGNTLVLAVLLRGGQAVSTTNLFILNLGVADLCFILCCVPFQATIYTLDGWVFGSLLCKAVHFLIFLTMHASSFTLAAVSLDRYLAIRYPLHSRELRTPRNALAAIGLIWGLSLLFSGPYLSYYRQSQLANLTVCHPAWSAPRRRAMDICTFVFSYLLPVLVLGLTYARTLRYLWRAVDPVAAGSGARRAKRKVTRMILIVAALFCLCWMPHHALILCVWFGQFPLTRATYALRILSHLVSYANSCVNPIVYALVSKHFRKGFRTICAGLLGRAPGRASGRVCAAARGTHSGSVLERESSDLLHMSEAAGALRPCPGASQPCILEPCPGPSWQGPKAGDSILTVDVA
# Protocol: Displacement of [125I]Galanin from human recombinant GAL2 receptor expressed in CHO cells
pIC50: −log10 of the molar value.
Readout name: pIC50

Inquiry: Short answer please: pIC50, Galanin receptor type 2 (Homo sapiens), entry `C/C(=N\OC(=O)Nc1ccccc1)c1cccc(-c2cccs2)c1`
Reply text: < 5.00

---

# Measured on: Mu-type opioid receptor (Homo sapiens, UniProt P35372)
# Protocol: Displacement of [3H]DAMGO from human recombinant mu opioid receptor expressed in HEK293 cells
pIC50: −log10 of the molar value.
Readout name: pIC50

Inquiry: I would be grateful if you could share the reported pIC50 for `C/C(=N\OC(=O)Nc1ccccc1)c1cccc(-c2cccs2)c1` .
Reply text: < 5.00

---

# Measured on: D(2) dopamine receptor (Homo sapiens, UniProt P14416)
# Protocol: Displacement of [3H]spiperone from human recombinant dopamine D2S receptor expressed in HEK293 cells
Readout name: IC50

Inquiry: D(2) dopamine receptor (Homo sapiens, UniProt P14416) / IC50 / `C/C(=N\OC(=O)Nc1ccccc1)c1cccc(-c2cccs2)c1` : value?
Reply text: > 10 µM

---

# Measured on: Cholecystokinin receptor type A (Homo sapiens, UniProt P32238)
# Sequence (P32238 whole entry): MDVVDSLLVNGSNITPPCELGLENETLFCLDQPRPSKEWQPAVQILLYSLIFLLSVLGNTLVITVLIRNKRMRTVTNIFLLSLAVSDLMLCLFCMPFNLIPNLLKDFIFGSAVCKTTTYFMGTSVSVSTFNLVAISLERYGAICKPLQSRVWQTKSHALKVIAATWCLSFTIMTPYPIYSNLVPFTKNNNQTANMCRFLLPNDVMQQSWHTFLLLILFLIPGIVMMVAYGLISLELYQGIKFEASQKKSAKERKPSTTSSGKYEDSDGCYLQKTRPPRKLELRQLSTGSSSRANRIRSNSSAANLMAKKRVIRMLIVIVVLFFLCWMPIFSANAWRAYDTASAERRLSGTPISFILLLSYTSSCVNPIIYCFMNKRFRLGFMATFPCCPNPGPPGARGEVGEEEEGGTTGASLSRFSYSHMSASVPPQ
# Protocol: Displacement of [125I]CCK-8 from human recombinant CCKA receptor expressed in CHO cells
Readout name: IC50 (µM)
Lab book: enter the figure in µM, no units written.

Inquiry: Which IC50 is listed for `C/C(=N\OC(=O)Nc1ccccc1)c1cccc(-c2cccs2)c1` ?
Reply text: 1

---

# Measured on: Muscarinic acetylcholine receptor M2 (Homo sapiens)
# Sequence (P08172 whole entry): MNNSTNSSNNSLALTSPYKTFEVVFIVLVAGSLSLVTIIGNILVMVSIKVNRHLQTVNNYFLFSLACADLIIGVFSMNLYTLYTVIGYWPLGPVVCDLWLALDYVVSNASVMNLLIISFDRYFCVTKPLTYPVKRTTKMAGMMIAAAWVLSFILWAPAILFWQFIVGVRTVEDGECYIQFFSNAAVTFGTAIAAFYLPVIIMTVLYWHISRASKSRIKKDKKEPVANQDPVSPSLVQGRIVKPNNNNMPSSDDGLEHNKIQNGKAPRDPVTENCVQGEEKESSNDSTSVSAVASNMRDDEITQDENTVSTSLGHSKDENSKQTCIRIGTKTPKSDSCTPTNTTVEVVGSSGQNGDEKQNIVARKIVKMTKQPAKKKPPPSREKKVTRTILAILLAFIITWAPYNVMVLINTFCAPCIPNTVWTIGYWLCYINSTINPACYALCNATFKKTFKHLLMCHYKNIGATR
# Protocol: Displacement of [3H]AF-DX 384 from human recombinant muscarinic M2 receptor expressed in CHO cells
Readout name: IC50

Inquiry: Give its IC50 value. Item: `C/C(=N\OC(=O)Nc1ccccc1)c1cccc(-c2cccs2)c1`
Reply text: > 10 µM

---

# Measured on: Histamine H2 receptor (Homo sapiens, UniProt P25021)
# Protocol: Displacement of [125I]APT from human recombinant histamine H2 receptor expressed in CHO cells
pIC50: −log10 of the molar value.
Readout name: pIC50

Inquiry: Would you kindly share the measured pIC50 for `C/C(=N\OC(=O)Nc1ccccc1)c1cccc(-c2cccs2)c1` ?
Reply text: < 5.00

---

# Measured on: 5-hydroxytryptamine receptor 5A (Homo sapiens, UniProt P47898)
# Sequence (P47898 whole entry): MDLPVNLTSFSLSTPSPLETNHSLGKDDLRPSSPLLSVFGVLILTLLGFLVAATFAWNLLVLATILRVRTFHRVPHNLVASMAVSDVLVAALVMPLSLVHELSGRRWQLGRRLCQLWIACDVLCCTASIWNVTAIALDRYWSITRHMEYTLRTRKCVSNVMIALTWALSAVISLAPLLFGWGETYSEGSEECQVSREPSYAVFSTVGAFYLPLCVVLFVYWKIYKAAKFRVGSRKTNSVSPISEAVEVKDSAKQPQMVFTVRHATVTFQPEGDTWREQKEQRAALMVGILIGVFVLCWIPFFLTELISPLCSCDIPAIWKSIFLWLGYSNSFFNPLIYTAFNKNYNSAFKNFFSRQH
# Protocol: Displacement of [3H]LSD from human recombinant 5HT5A receptor expressed in CHO cells
Readout name: IC50 (µM)
I only need the number, in µM, no unit after it.

Inquiry: What does the data say about its IC50? Entry: `C/C(=N\OC(=O)Nc1ccccc1)c1cccc(-c2cccs2)c1`
Reply text: 1

---

# Measured on: UniProtKB P25101
# Sequence (P25101 whole entry): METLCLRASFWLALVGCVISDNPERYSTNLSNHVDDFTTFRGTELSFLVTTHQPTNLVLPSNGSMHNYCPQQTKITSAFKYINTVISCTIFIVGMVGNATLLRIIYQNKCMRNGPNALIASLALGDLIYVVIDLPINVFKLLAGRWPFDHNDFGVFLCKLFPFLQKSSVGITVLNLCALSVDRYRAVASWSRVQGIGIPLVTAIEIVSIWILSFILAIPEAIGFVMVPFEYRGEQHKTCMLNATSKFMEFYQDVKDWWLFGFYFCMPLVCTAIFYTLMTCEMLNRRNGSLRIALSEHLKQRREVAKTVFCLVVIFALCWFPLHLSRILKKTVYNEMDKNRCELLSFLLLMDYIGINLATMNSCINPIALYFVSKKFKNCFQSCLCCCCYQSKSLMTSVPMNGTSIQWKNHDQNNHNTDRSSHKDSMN
# Protocol: Displacement of [125I]endothelin-1 from human recombinant ETA receptor expressed in CHO cells
# Format: cell-based
pIC50: −log10 of the molar value.
Readout name: pIC50

Inquiry: Hi! What's the reported pIC50 for `C/C(=N\OC(=O)Nc1ccccc1)c1cccc(-c2cccs2)c1` on UniProtKB P25101?
Reply text: < 5.00

---

# Measured on: Melatonin receptor type 1A (Homo sapiens)
# Protocol: Displacement of [125I]2-iodomelatonin from human recombinant MT1 receptor expressed in CHO cells
Readout name: IC50

Inquiry: What measured IC50 goes with `C/C(=N\OC(=O)Nc1ccccc1)c1cccc(-c2cccs2)c1` ?
Reply text: > 10 µM

---

# Measured on: 5-hydroxytryptamine receptor 3A (Homo sapiens, UniProt P46098)
# Protocol: Displacement of [3H]BRL 43694 from human recombinant 5HT3 receptor expressed in CHO cells
Readout name: IC50

Inquiry: Need IC50, item `C/C(=N\OC(=O)Nc1ccccc1)c1cccc(-c2cccs2)c1`
Reply text: > 10 µM

---

# Measured on: Neurotensin receptor type 1 (Homo sapiens, UniProt P30989)
# Sequence (P30989 whole entry): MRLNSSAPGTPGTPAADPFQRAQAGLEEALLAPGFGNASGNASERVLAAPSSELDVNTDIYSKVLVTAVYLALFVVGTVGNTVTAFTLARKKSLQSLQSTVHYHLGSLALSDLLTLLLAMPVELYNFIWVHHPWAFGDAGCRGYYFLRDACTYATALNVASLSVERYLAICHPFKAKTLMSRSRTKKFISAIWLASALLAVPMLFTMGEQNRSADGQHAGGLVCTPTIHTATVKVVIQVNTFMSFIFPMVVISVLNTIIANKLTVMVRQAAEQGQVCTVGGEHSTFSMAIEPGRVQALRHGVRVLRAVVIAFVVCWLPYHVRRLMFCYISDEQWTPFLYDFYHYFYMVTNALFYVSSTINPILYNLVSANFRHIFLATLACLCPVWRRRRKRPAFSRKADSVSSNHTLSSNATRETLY
# Protocol: Displacement of [125I]Tyr3-neurotensin from human recombinant NT1 receptor expressed in H recombinant CHO cells
pIC50: −log10 of the molar value.
Readout name: pIC50

Inquiry: What value of pIC50 has been reported for the following compound? `C/C(=N\OC(=O)Nc1ccccc1)c1cccc(-c2cccs2)c1`
Reply text: < 5.00

---

# Measured on: Transient receptor potential cation channel subfamily V member 1 (Mus musculus, UniProt Q704Y3)
# Sequence (Q704Y3 whole entry): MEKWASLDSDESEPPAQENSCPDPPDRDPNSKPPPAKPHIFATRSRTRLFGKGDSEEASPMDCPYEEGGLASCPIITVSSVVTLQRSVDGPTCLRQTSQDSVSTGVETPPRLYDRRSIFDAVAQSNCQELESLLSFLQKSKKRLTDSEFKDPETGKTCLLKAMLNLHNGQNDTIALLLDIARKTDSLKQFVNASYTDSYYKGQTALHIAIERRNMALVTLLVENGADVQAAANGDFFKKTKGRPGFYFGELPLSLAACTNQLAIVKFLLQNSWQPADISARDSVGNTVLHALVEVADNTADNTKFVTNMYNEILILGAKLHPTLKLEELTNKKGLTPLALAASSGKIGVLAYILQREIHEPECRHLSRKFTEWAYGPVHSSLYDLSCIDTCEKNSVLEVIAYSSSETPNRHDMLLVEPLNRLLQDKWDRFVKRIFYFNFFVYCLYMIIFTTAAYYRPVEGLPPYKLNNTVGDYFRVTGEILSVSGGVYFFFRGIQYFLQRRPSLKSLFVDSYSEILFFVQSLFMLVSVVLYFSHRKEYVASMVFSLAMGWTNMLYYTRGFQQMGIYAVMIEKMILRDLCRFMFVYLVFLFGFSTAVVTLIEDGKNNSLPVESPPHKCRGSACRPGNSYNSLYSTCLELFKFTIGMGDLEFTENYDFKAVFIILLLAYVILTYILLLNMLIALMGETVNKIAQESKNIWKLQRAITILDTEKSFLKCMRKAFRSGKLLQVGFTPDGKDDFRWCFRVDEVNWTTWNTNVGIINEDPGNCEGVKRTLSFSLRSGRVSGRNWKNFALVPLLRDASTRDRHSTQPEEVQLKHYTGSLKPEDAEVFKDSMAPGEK
pIC50: −log10 of the molar value.
Readout name: pIC50

Inquiry: # lookup: pIC50 of `C/C(=N\OC(=O)Nc1ccccc1)c1cccc(-c2cccs2)c1`
Reply text: < 5.00

---

# Measured on: Melanocortin receptor 4 (Homo sapiens, UniProt P32245)
# Sequence (P32245 whole entry): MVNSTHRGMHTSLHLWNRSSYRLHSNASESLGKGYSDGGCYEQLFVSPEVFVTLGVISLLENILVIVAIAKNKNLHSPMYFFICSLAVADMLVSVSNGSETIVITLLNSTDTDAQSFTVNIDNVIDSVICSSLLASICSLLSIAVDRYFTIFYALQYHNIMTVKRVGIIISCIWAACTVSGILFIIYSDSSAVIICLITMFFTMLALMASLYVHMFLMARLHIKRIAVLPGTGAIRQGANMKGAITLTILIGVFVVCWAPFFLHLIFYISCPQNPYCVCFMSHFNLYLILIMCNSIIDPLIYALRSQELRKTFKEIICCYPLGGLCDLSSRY
# Protocol: Displacement of [125I]NDP-a-MSH from human recombinant MC4 receptor expressed in CHO cells
Readout name: IC50

Inquiry: // lookup IC50 | system=Melanocortin receptor 4 (Homo sapiens, UniProt P32245) | key= `C/C(=N\OC(=O)Nc1ccccc1)c1cccc(-c2cccs2)c1`
Reply text: > 10 µM

---

# Measured on: Beta-2 adrenergic receptor (Homo sapiens)
# Sequence (P07550 whole entry): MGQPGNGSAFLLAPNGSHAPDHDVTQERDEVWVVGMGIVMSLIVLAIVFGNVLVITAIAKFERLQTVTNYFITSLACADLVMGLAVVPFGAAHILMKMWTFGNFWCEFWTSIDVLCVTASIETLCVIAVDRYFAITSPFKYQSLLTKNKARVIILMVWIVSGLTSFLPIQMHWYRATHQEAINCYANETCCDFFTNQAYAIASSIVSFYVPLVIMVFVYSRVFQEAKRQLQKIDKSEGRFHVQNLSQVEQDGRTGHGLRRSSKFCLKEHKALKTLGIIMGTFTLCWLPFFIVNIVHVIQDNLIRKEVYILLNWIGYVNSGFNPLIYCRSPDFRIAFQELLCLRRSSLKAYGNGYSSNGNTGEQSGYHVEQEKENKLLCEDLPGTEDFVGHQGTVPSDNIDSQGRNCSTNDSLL
# Protocol: Displacement of [3H](-)CGP 12177 from human recombinant beta2 receptor expressed in CHO cells
Readout name: IC50

Inquiry: Record `C/C(=N\OC(=O)Nc1ccccc1)c1cccc(-c2cccs2)c1` : what is its IC50 with Beta-2 adrenergic receptor (Homo sapiens)?
Reply text: > 10 µM

---

# Measured on: 5-hydroxytryptamine receptor 7 (Homo sapiens, UniProt P34969)
# Sequence (P34969 whole entry): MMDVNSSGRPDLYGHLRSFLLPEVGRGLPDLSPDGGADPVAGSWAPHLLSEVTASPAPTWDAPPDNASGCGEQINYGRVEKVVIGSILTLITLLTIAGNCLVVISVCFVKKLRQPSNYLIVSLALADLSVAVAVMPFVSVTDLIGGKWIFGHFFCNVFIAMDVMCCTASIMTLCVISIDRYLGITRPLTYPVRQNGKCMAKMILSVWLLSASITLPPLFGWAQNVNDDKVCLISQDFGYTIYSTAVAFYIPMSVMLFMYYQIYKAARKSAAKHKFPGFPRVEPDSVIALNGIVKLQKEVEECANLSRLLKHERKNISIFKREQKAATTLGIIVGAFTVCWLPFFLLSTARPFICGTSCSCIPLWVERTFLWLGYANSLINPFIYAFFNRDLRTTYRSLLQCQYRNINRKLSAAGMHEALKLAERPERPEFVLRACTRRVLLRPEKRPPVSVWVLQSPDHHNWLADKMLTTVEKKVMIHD
# Protocol: Displacement of [3H]LSD from human recombinant 5HT7 receptor expressed in CHO cells
pIC50: −log10 of the molar value.
Readout name: pIC50

Inquiry: # query: pIC50 of entry `C/C(=N\OC(=O)Nc1ccccc1)c1cccc(-c2cccs2)c1`
Reply text: < 5.00
